Test system: 349418-098-R-PDC spheroids, viability, % test/control
Test: Anticancer human tumor 349418-098-R-PDC patient-derived lung adenocarcinoma cell line growth inhibition [IpAb]; active = viability on the fitted dose curve at most 10% of control; inactive = the rest
Conditions: second compound 0.316 µM; first compound 1 µM; spheroids with HUVEC and MSC
Labels: label 1 = active, label 0 = inactive

{"compound": "CC1(C)CCC(CN2CCN(c3ccc(C(=O)NS(=O)(=O)c4ccc(NCC5CCOCC5)c([N+](=O)[O-])c4)c(Oc4cnc5[nH]ccc5c4)c3)CC2)=C(c2ccc(Cl)cc2)C1 + CCN1CCN(Cc2ccc(Nc3ncc(F)c(-c4cc(F)c5nc(C)n(C(C)C)c5c4)n3)nc2)CC1", "targetUnderTest": "349418-098-R-PDC spheroids, viability, % test/control", "assignedLabel": "label 0"}
{"compound": "C=CCn1c(=O)c2cnc(Nc3ccc(N4CCN(C)CC4)cc3)nc2n1-c1cccc(C(C)(C)O)n1 + CC(C)NCC(C(=O)N1CCN(c2ncnc3c2C(C)CC3O)CC1)c1ccc(Cl)cc1", "targetUnderTest": "349418-098-R-PDC spheroids, viability, % test/control", "assignedLabel": "label 1"}
{"compound": "Cc1nc(NC(=O)N2CCCC2C(N)=O)sc1-c1ccnc(C(C)(C)C(F)(F)F)c1 (stereo not given) + CC(C)NCC(C(=O)N1CCN(c2ncnc3c2C(C)CC3O)CC1)c1ccc(Cl)cc1", "targetUnderTest": "349418-098-R-PDC spheroids, viability, % test/control", "assignedLabel": "label 0"}
{"compound": "CCCS(=O)(=O)Nc1ccc(F)c(C(=O)c2c[nH]c3ncc(-c4ccc(Cl)cc4)cc23)c1F + CC(C)NCC(C(=O)N1CCN(c2ncnc3c2C(C)CC3O)CC1)c1ccc(Cl)cc1", "targetUnderTest": "349418-098-R-PDC spheroids, viability, % test/control", "assignedLabel": "label 0"}
{"compound": "C=CC(=O)N1CCN(c2nc(=O)n(-c3c(C)ccnc3C(C)C)c3nc(-c4c(O)cccc4F)c(F)cc23)C(C)C1 (stereo not given) + CC(C)NCC(C(=O)N1CCN(c2ncnc3c2C(C)CC3O)CC1)c1ccc(Cl)cc1", "targetUnderTest": "349418-098-R-PDC spheroids, viability, % test/control", "assignedLabel": "label 0"}

###

Each record here notes measured pIC50.
System: 349418-098-R-PDC spheroids, viability, % test/control
Test: Anticancer human tumor 349418-098-R-PDC cell line growth inhibition [IpAb];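 also: spheroids exposed to compounds for 7 days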
Settings: curve of first compound; second compound 0.0316 µM; spheroids with HUVEC and MSC
pIC50: −log10 of the molar value.
propertyMeasured: pIC50

{"compound": "CC(C)n1nc(-c2ccc3oc(N)nc3c2)c2c(N)ncnc21 + CCN1CCN(Cc2ccc(Nc3ncc(F)c(-c4cc(F)c5nc(C)n(C(C)C)c5c4)n3)nc2)CC1", "targetUnderTest": "349418-098-R-PDC spheroids, viability, % test/control", "modifier": ">", "quantitativeReadout": 9.50}
{"compound": "C=CCn1c(=O)c2cnc(Nc3ccc(N4CCN(C)CC4)cc3)nc2n1-c1cccc(C(C)(C)O)n1 + CCN1CCN(Cc2ccc(Nc3ncc(F)c(-c4cc(F)c5nc(C)n(C(C)C)c5c4)n3)nc2)CC1", "targetUnderTest": "349418-098-R-PDC spheroids, viability, % test/control", "modifier": "=", "quantitativeReadout": 7.00}
{"compound": "CC1(C)CCC(CN2CCN(c3ccc(C(=O)NS(=O)(=O)c4ccc(NCC5CCOCC5)c([N+](=O)[O-])c4)c(Oc4cnc5[nH]ccc5c4)c3)CC2)=C(c2ccc(Cl)cc2)C1 + CCN1CCN(Cc2ccc(Nc3ncc(F)c(-c4cc(F)c5nc(C)n(C(C)C)c5c4)n3)nc2)CC1", "targetUnderTest": "349418-098-R-PDC spheroids, viability, % test/control", "modifier": "=", "quantitativeReadout": 5.79}
{"compound": "Cn1ncc(Cl)c1-c1cc(C(=O)NC(CN)Cc2cccc(F)c2)sc1Cl (stereo not given) + CCN1CCN(Cc2ccc(Nc3ncc(F)c(-c4cc(F)c5nc(C)n(C(C)C)c5c4)n3)nc2)CC1", "targetUnderTest": "349418-098-R-PDC spheroids, viability, % test/control", "modifier": ">", "quantitativeReadout": 7.50}
{"compound": "CCCS(=O)(=O)Nc1ccc(F)c(C(=O)c2c[nH]c3ncc(-c4ccc(Cl)cc4)cc23)c1F + CCN1CCN(Cc2ccc(Nc3ncc(F)c(-c4cc(F)c5nc(C)n(C(C)C)c5c4)n3)nc2)CC1", "targetUnderTest": "349418-098-R-PDC spheroids, viability, % test/control", "modifier": ">", "quantitativeReadout": 7.50}

###

System: 349418-098-R-PDC spheroids, viability, % test/control
Assay: Anticancer human tumor 349418-098-R-PDC cell line growth inhibition [IpAb];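 also: spheroids exposed to compounds for 7 days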
Details: second compound 0.1 µM; first compound 1 µM; stronger effect = lower value; spheroids with HUVEC and MSC

{"molecule": "Cc1nc(NC(=O)N2CCCC2C(N)=O)sc1-c1ccnc(C(C)(C)C(F)(F)F)c1 (stereo unspecified) + CCN1CCN(Cc2ccc(Nc3ncc(F)c(-c4cc(F)c5nc(C)n(C(C)C)c5c4)n3)nc2)CC1", "unitAbbreviation": "%", "viability, T/C": 7.63}
{"molecule": "CCCS(=O)(=O)Nc1ccc(F)c(C(=O)c2c[nH]c3ncc(-c4ccc(Cl)cc4)cc23)c1F + CCN1CCN(Cc2ccc(Nc3ncc(F)c(-c4cc(F)c5nc(C)n(C(C)C)c5c4)n3)nc2)CC1", "unitAbbreviation": "%", "viability, T/C": 17.2}
{"molecule": "COc1c(OCCCN2CCOCC2)ccc2c3n(c(=NC(=O)c4cnc(N)nc4)nc12)CCN3 + CCN1CCN(Cc2ccc(Nc3ncc(F)c(-c4cc(F)c5nc(C)n(C(C)C)c5c4)n3)nc2)CC1", "unitAbbreviation": "%", "viability, T/C": 5.83}
{"molecule": "C=CCn1c(=O)c2cnc(Nc3ccc(N4CCN(C)CC4)cc3)nc2n1-c1cccc(C(C)(C)O)n1 + CC(C)NCC(C(=O)N1CCN(c2ncnc3c2C(C)CC3O)CC1)c1ccc(Cl)cc1", "unitAbbreviation": "%", "viability, T/C": 4.54}
{"molecule": "Cn1nccc1Nc1nccc(-c2ccn(C(CO)c3ccc(Cl)c(F)c3)c(=O)c2)n1 (stereo unspecified) + CCN1CCN(Cc2ccc(Nc3ncc(F)c(-c4cc(F)c5nc(C)n(C(C)C)c5c4)n3)nc2)CC1", "unitAbbreviation": "%", "viability, T/C": 12.7}
{"molecule": "CC1(C)CCC(CN2CCN(c3ccc(C(=O)NS(=O)(=O)c4ccc(NCC5CCOCC5)c([N+](=O)[O-])c4)c(Oc4cnc5[nH]ccc5c4)c3)CC2)=C(c2ccc(Cl)cc2)C1 + CCN1CCN(Cc2ccc(Nc3ncc(F)c(-c4cc(F)c5nc(C)n(C(C)C)c5c4)n3)nc2)CC1", "unitAbbreviation": "%", "viability, T/C": 26.3}

###

Each record here notes measured viability, T/C.
System: 349418-098-R-PDC spheroids, viability, % test/control
Test: Anticancer human tumor 349418-098-R-PDC cell line growth inhibition [IpAb];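 also: spheroids exposed to compounds for 7 days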
Settings: second compound 0.1 µM; first compound 0.1 µM; stronger effect = lower value; spheroids with HUVEC and MSC
propertyMeasured: viability, T/C

{"molecule": "CC(C)n1nc(-c2ccc3oc(N)nc3c2)c2c(N)ncnc21 + CC(C)NCC(C(=O)N1CCN(c2ncnc3c2C(C)CC3O)CC1)c1ccc(Cl)cc1", "targetUnderTest": "349418-098-R-PDC spheroids, viability, % test/control", "result": "6.26%"}
{"molecule": "Cn1ncc(Cl)c1-c1cc(C(=O)NC(CN)Cc2cccc(F)c2)sc1Cl (centres undefined) + CC(C)NCC(C(=O)N1CCN(c2ncnc3c2C(C)CC3O)CC1)c1ccc(Cl)cc1", "targetUnderTest": "349418-098-R-PDC spheroids, viability, % test/control", "result": "45.1%"}
{"molecule": "CCCS(=O)(=O)Nc1ccc(F)c(C(=O)c2c[nH]c3ncc(-c4ccc(Cl)cc4)cc23)c1F + CC(C)NCC(C(=O)N1CCN(c2ncnc3c2C(C)CC3O)CC1)c1ccc(Cl)cc1", "targetUnderTest": "349418-098-R-PDC spheroids, viability, % test/control", "result": "48.1%"}
{"molecule": "C=CC(=O)N1CCN(c2nc(=O)n(-c3c(C)ccnc3C(C)C)c3nc(-c4c(O)cccc4F)c(F)cc23)C(C)C1 (centres undefined) + CC(C)NCC(C(=O)N1CCN(c2ncnc3c2C(C)CC3O)CC1)c1ccc(Cl)cc1", "targetUnderTest": "349418-098-R-PDC spheroids, viability, % test/control", "result": "89.6%"}

###

Test system: 349418-098-R-PDC spheroids, viability, % test/control
Test: Anticancer human tumor 349418-098-R-PDC cell line growth inhibition [IpAb]; active means viability on the fitted dose curve at most 10% of control; inactive means the rest;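 also: spheroids exposed to compounds for 7 days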
Conditions: second compound 3.16 µM; first compound 0.1 µM; spheroids with HUVEC and MSC
Labels: yes for active, no for inactive

{"compound": "Cn1ncnc1[C@H]1c2n[nH]c(=O)c3cc(F)cc(c23)N[C@@H]1c1ccc(F)cc1 + CC(C)NCC(C(=O)N1CCN(c2ncnc3c2C(C)CC3O)CC1)c1ccc(Cl)cc1", "targetUnderTest": "349418-098-R-PDC spheroids, viability, % test/control", "assignedLabel": "yes"}
{"compound": "CC1(C)CCC(CN2CCN(c3ccc(C(=O)NS(=O)(=O)c4ccc(NCC5CCOCC5)c([N+](=O)[O-])c4)c(Oc4cnc5[nH]ccc5c4)c3)CC2)=C(c2ccc(Cl)cc2)C1 + CC(C)NCC(C(=O)N1CCN(c2ncnc3c2C(C)CC3O)CC1)c1ccc(Cl)cc1", "targetUnderTest": "349418-098-R-PDC spheroids, viability, % test/control", "assignedLabel": "no"}
{"compound": "C=CCn1c(=O)c2cnc(Nc3ccc(N4CCN(C)CC4)cc3)nc2n1-c1cccc(C(C)(C)O)n1 + CC(C)NCC(C(=O)N1CCN(c2ncnc3c2C(C)CC3O)CC1)c1ccc(Cl)cc1", "targetUnderTest": "349418-098-R-PDC spheroids, viability, % test/control", "assignedLabel": "yes"}
{"compound": "Cn1nccc1Nc1nccc(-c2ccn(C(CO)c3ccc(Cl)c(F)c3)c(=O)c2)n1 (stereo not given) + CC(C)NCC(C(=O)N1CCN(c2ncnc3c2C(C)CC3O)CC1)c1ccc(Cl)cc1", "targetUnderTest": "349418-098-R-PDC spheroids, viability, % test/control", "assignedLabel": "yes"}
{"compound": "C=CC(=O)N1CCN(c2nc(=O)n(-c3c(C)ccnc3C(C)C)c3nc(-c4c(O)cccc4F)c(F)cc23)C(C)C1 (stereo not given) + CC(C)NCC(C(=O)N1CCN(c2ncnc3c2C(C)CC3O)CC1)c1ccc(Cl)cc1", "targetUnderTest": "349418-098-R-PDC spheroids, viability, % test/control", "assignedLabel": "no"}
{"compound": "COc1c(OCCCN2CCOCC2)ccc2c3n(c(=NC(=O)c4cnc(N)nc4)nc12)CCN3 + CC(C)NCC(C(=O)N1CCN(c2ncnc3c2C(C)CC3O)CC1)c1ccc(Cl)cc1", "targetUnderTest": "349418-098-R-PDC spheroids, viability, % test/control", "assignedLabel": "yes"}
{"compound": "Cn1ncc(Cl)c1-c1cc(C(=O)NC(CN)Cc2cccc(F)c2)sc1Cl (stereo not given) + CC(C)NCC(C(=O)N1CCN(c2ncnc3c2C(C)CC3O)CC1)c1ccc(Cl)cc1", "targetUnderTest": "349418-098-R-PDC spheroids, viability, % test/control", "assignedLabel": "no"}
{"compound": "CC(C)n1nc(-c2ccc3oc(N)nc3c2)c2c(N)ncnc21 + CC(C)NCC(C(=O)N1CCN(c2ncnc3c2C(C)CC3O)CC1)c1ccc(Cl)cc1", "targetUnderTest": "349418-098-R-PDC spheroids, viability, % test/control", "assignedLabel": "yes"}
{"compound": "Cc1nc(NC(=O)N2CCCC2C(N)=O)sc1-c1ccnc(C(C)(C)C(F)(F)F)c1 (stereo not given) + CC(C)NCC(C(=O)N1CCN(c2ncnc3c2C(C)CC3O)CC1)c1ccc(Cl)cc1", "targetUnderTest": "349418-098-R-PDC spheroids, viability, % test/control", "assignedLabel": "yes"}
{"compound": "CCCS(=O)(=O)Nc1ccc(F)c(C(=O)c2c[nH]c3ncc(-c4ccc(Cl)cc4)cc23)c1F + CC(C)NCC(C(=O)N1CCN(c2ncnc3c2C(C)CC3O)CC1)c1ccc(Cl)cc1", "targetUnderTest": "349418-098-R-PDC spheroids, viability, % test/control", "assignedLabel": "yes"}
